Tested on: A3G-Luc/Vif
Assay: A3G-Luc/Vif luciferase screen in 293T cells stably co-expressing A3G-Luc and HIV-1 Vif
Assay type: cell-based, human
Settings: 10 μM, 48 hrs, DMSO = 100%
observed-property: Vif-A3G-Luc Activity (% of RLUs compared to DMSO treated control) (%)

1) COc1ccc(C(=O)Nc2ccc(Cl)c(Cl)c2)cc1NC(=O)N(C)C: 146
2) COc1ccc(C(=O)Nc2ccc(Cl)c(Cl)c2)cc1NC(=O)CC1CCCC1: 95
3) COc1ccc(C(=O)Nc2ccc(Cl)c(Cl)c2)cc1NC(=O)C1CCCC1: 131
4) COc1ccc(C(=O)NCc2ccccc2)cc1NC(=O)C(C)C: 80
5) COc1ccc(C(=O)Nc2ccc(Cl)c(Cl)c2)cc1NS(=O)(=O)C1CCC1: 85
6) COc1ccc(C(=O)Nc2ccc(Cl)c(Cl)c2)cc1NC(=O)c1ccncc1: 84
7) COc1ccc(C(=O)Nc2ccc(Cl)c(Cl)c2)cc1NC(=O)C(C)(C)C: 123
8) COc1ccc(C(=O)NCc2ccncc2)cc1NC(=O)C(C)C: 85
9) CCOc1ccc(C(=O)Nc2ccc(Cl)c(Cl)c2)cc1NC(=O)CC1CC1: 158

The origin of these recorded values is patent US9688637B2.
